Listed below: temperature of solid-solid phase transition upon heating values for each entry.
Assay: Thermal solid-state stability / phase transition on heating (hot-stage microscopy, DSC)
Assay type: physicochemical
Settings: heating at ambient pressure; observed by hot-stage microscopy and as DSC peak

[
  {
    "compound": "CCC(=O)O[C@]1(C(=O)CCl)[C@@H](C)CC2[C@@H]3C[C@H](F)C4=CC(=O)C=C[C@]4(C)[C@@]3(F)[C@@H](O)C[C@@]21C (stereo partly drawn) [Form VI, halobetasol propionate Form VI]",
    "reported": "150–170 °C"
  }
]

Now take the following compound into account.
Provide one value: measured temperature of solid-solid phase transition upon heating of CCC(=O)O[C@]1(C(=O)CCl)[C@@H](C)CC2[C@@H]3C[C@H](F)C4=CC(=O)C=C[C@]4(C)[C@@]3(F)[C@@H](O)C[C@@]21C (stereo partly drawn) [Form IV, halobetasol propionate Form IV] 120–130 °C
